Experiment: total protein half-life in vivo (active degradation + dilution); higher = more stable protein
Conditions: E. coli NCM3722 delta-clpP delta-lon delta-hslV; growth: N-lim chemostat; doubling time 6 h
Quantity kind: total protein half-life in vivo (h)
Respond with the bare value in h.

## Task Which measured total protein half-life in vivo value corresponds to MNYEIKQEEKRTVAGFHLVGPWEQTVKKGFEQLMMWVDSKNIVPKEWVAVYYDNPDETPAEKLRCDTVVTVPGYFTLPENSEGVILTEITGGQYAVAVARVVGDDFAKPWYQFFNSLLQDSAYEMLPKPCFEVYLNNGAEDGYWDIEMYVAVQPKHH ?
## Result 4.8

## Task Same again, this time with MELKDYYAIMGVKPTDDLKTIKTAYRRLARKYHPDVSKEPDAEARFKEVAEAWEVLSDEQRRAEYDQMWQHRNDPQFNRQFHHGDGQSFNAEDFDDIFSSIFGQHARQSRQRPATRGHDIEIEVAVFLEETLTEHKRTISYNLPVYNAFGMIEQEIPKTLNVKIPAGVGNGQRIRLKGQGTPGENGGPNGDLWLVIHIAPHPLFDIVGQDLEIVVPVSPWEAALGAKVTVPTLKESILLTIPPGSQAGQRLRVKGKGLVSKKQTGDLYAVLKIVMPPKPDENTAALWQQLADAQSSFDPRKDWGKA
## Result 6.73

## Task Also, MTMTRLKISKTLLAVMLTSAVATGSAYAENNAQTTNESAGQKVDSSMNKVGNFMDDSAITAKVKAALVDHDNIKSTDISVKTDQKVVTLSGFVESQAQAEEAVKVAKGVEGVTSVSDKLHVRDAKEGSVKGYAGDTATTSEIKAKLLADDIVPSRHVKVETTDGVVQLSGTVDSQAQSDRAESIAKAVDGVKSVKNDLKTK [P0AFH8] please.
## Result 3.62
